These measurements were taken from paper PMC2815200.

target: mA1AR (Mus musculus, UniProt Q60612)
Sequence (Q60612 whole entry): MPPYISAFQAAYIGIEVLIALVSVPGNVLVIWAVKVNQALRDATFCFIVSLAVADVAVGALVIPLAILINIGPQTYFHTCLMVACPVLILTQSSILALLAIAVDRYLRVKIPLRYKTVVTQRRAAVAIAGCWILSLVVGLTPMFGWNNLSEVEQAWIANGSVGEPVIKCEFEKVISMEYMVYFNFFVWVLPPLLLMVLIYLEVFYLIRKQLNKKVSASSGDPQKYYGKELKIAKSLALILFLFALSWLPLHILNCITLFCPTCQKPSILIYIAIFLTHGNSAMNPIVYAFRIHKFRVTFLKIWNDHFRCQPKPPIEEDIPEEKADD
observed_property: Ki (nM)
// return numeric value only (unit: nM, not printed)

Tested on mA1AR (Mus musculus, UniProt Q60612), the item O[C@@H]1[C@H](O)[C@@H]2C[C@@H]2[C@H]1n1cnc2c(NCc3cccc(I)c3)nc(Cl)nc21 [MRS5127] showed Ki equal to 140

* * *

target: rabbit A3AR (Oryctolagus cuniculus); assay: cAMP accumulation assay, HEK 293 cells expressing rabbit A3AR; conditions: forskolin 10 μM, 15 min, Ro 20-1724 20 μM
Sequence (O02667 whole entry): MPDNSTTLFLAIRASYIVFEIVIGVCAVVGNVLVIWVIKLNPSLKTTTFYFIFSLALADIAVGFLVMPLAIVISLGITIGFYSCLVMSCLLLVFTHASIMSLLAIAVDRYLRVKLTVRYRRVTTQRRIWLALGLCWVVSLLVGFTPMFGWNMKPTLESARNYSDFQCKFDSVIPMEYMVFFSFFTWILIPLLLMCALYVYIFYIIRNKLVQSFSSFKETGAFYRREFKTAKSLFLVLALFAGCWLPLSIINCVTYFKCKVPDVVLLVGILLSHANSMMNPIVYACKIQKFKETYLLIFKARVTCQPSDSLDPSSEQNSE
observed_property: pEC50
API: returns pEC50 as number; meaning -log10 of concentration in mol/L.

Per the records, this molecule ( O[C@@H]1[C@H](O)[C@@H]2C[C@@H]2[C@H]1n1cnc2c(NCc3cccc(I)c3)nc(Cl)nc21 [MRS5127] ) has pEC50 equal to 8.82
